The measured values listed here are drawn from patent US8536196B2.

Test system: MEFs / 3T3-L1
test: Adipocyte differentiation induction assay (Oil Red O staining)
Assay type: cell-based, mouse
Set-up: key: 0: similar results to DPD; −1: even less adipocyte differentiation; +1: more adipocyte differentiation (both relative to DPD)
applied.conditions: relative to DPD (SN1)
value.kind: Adip. (adipocyte differentiation)
Please reply with the value in numeric form only.

Ask: Determine its reported Adip. (adipocyte differentiation): C/C=C/CC1OC[C@@H](C/C=C\CCC(=O)O)[C@@H](c2ccccc2O)O1 (stereo partly shown) [compound 12]
Result: −1

Ask: Indicate its recorded Adip. (adipocyte differentiation); the compound in question is O=C(O)CC/C=C\C[C@@H]1CO[C@H](C2CCCCC2)O[C@@H]1c1ccccc1O [compound 21]
Result: 0

Ask: Identify measured Adip. (adipocyte differentiation) associated with O=C(O)CC/C=C\C[C@@H]1COC2(CCNCC2)O[C@@H]1c1ccccc1O [compound 8]
Result: −1

Ask: Please indicate Adip. (adipocyte differentiation) recorded for O=C(O)CC/C=C\C[C@@H]1COC(c2cccc(Cl)c2Cl)O[C@@H]1c1ccccc1O (stereo partly shown) [compound 2]
Result: 0

Ask: Quick one: give measured Adip. (adipocyte differentiation) for COc1ccccc1[C@H]1OC[C@@H](C/C=C\CCC(=O)O)[C@@H](c2ccccc2O)O1 [compound 18]
Result: −1

Ask: State its Adip. (adipocyte differentiation): O=C(O)CC/C=C\C[C@@H]1CO[C@H](c2ccccc2Cl)O[C@@H]1c1ccccc1O [compound 1]
Result: 0

Ask: Identify the reported Adip. (adipocyte differentiation) for the following entry. COc1ccccc1[C@H]1O[C@@H](c2ccccc2Cl)OC[C@H]1C/C=C\CCC(=O)O [Compound 5]
Result: 0

Ask: Quickly give me recorded Adip. (adipocyte differentiation) for O=C(O)CC/C=C\C[C@@H]1COC(c2cccc3ccccc23)O[C@@H]1c1ccccc1O (stereo partly shown) [compound 9]
Result: 0

Ask: Supply Adip. (adipocyte differentiation) value. Item: CC(C)[C@H]1OC[C@@H](C/C=C\CCC(=O)O)[C@@H](c2ccccc2O)O1 [compound 20]
Result: 0

Ask: Identify Adip. (adipocyte differentiation) associated with the compound COc1ccccc1[C@@H]1O[C@H](c2ccccc2Cl)OC[C@@H]1C/C=C\CCC(=O)O [Compound 4]
Result: 0

Ask: For the compound O=C(O)CC/C=C\C[C@@H]1COC(c2coc3ccc(Cl)cc3c2=O)O[C@@H]1c1ccccc1O (stereo partly shown) [compound 13] , give its reported Adip. (adipocyte differentiation).
Result: −1

Ask: Give reported Adip. (adipocyte differentiation) value for O=C(O)CCCCCCC[C@@H]1CO[C@H](c2ccccc2Cl)O[C@@H]1c1ccccc1O [compound 31]
Result: 0

Ask: Supply recorded Adip. (adipocyte differentiation) for O=C(O)CC/C=C\C[C@@H]1COC2(CCCCC2)O[C@@H]1c1ccccc1O [compound 6] here.
Result: 0

Ask: Assign Adip. (adipocyte differentiation) to the following record: O=C(O)CC/C=C\C[C@@H]1COC(c2ccccc2-c2ccccc2)O[C@@H]1c1ccccc1O (stereo partly shown) [compound 10]
Result: 0

Ask: Give Adip. (adipocyte differentiation) for the following compound: COc1ccc(Oc2ccccc2C2OC[C@@H](C/C=C\CCC(=O)O)[C@@H](c3ccccc3O)O2)cc1 (stereo partly shown) [compound 7]
Result: 0

Ask: Consider the compound COc1ccccc1[C@H]1OC(C)(C)OC[C@H]1C/C=C\CCCCC(=O)O [compound 37] . State its measured Adip. (adipocyte differentiation).
Result: 0

Ask: Look up and report measured Adip. (adipocyte differentiation) for this entry: COc1cccc([C@H]2OC[C@@H](C/C=C\CCC(=O)O)[C@@H](c3ccccc3O)O2)c1OC [compound 19]
Result: 0
